tested_system: Polymerase acidic protein (Influenza A virus (A/Puerto Rico/8/1934(H1N1)), UniProt P03433)
measured_metric: IC50 (nM)
Give your result in nM as a bare value.

Enquiry: Value wanted: IC50 (Polymerase acidic protein (Influenza A virus (A/Puerto Rico/8/1934(H1N1)), UniProt P03433)) of entry `O=C(O)/C(O)=C/C(=O)C1(Cc2ccc(Cl)cc2)CCN(Cc2ccc(Cl)cc2)CC1`
Return: 540
